- test-target: butyryl cholinesterase (BChE) (Equus caballus)
- Construct: The AChE was derived from the electric eel, while BChE was obtained from equineserum
- Sequence (P81908 whole entry): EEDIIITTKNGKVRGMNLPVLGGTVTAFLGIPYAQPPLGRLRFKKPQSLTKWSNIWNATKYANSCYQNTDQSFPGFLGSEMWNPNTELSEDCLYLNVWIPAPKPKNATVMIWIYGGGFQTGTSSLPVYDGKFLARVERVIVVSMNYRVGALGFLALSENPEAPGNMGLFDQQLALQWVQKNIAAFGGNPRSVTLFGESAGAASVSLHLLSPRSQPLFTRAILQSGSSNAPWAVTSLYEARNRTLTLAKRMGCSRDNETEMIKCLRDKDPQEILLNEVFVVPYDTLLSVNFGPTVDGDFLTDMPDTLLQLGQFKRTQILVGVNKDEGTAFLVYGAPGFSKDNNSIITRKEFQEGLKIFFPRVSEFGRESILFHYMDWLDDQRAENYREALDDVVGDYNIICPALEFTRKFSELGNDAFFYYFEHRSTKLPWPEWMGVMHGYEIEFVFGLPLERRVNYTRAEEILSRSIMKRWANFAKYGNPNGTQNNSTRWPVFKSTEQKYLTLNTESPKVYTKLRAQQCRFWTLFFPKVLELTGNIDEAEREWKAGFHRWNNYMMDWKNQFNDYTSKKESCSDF
- assay-protocol: Anticholinesterase assay (Elman's test), BChE
# fulfilled = IC50 below 500 µM (exclusive); not fulfilled = IC50 at/above 500 µM

Check out these entries, answers already filled in.
Cc1cccnc1NC(=S)NC1CCCCC1    not fulfilled
S=C(Nc1ccccn1)NC1CCCCC1    fulfilled
Cc1ccc(NC(=S)NC2CCCCC2)c(C)c1    fulfilled
S=C(Nc1ccc(Cl)cc1)NC1CCCCC1    not fulfilled

Read the next record carefully.
[Q] Confirm or reject: IC50 of S=C(Nc1ccccc1)Nc1cccc(Cl)c1 lies strictly below 500 µM
[A] fulfilled
